For each record, write down the corresponding TGI.
- Test system: SR leukemia
- PROTOCOL DESCRIPTION: NCI tumour cell line growth inhibition, 48 h

Query string: Endpoint output: TGI of `O=c1[nH][nH]c(=O)n1Cc1ccccc1` . Value?
Result string: > 100 µM

Query string: Would you kindly repeat that for c1ccc2cc(C3NCCc4[nH]cnc43)ccc2c1 (stereo not drawn) ?
Result string: > 100 µM

Query string: Would you kindly repeat that for `CNC(=O)O/N=C1\N(C)CN(c2ccccc2)C12CCN(CCCC(=O)c1ccc(F)cc1)CC2` ?
Result string: > 100 µM

Query string: Would you kindly repeat that for CC(=O)N1C(c2[nH]c3ccccc3c2Cc2ccccc2)CCN1c1ccccc1 (stereo not drawn) ?
Result string: > 10 µM

Query string: Would you kindly repeat that for `COc1ccc(C[C@H]2COC(=O)[C@@H]2Cc2ccc(Br)cc2)cc1OC` ?
Result string: > 94 µM

Query string: Would you kindly repeat that for C/C(=C\[Si](C)(C)c1ccco1)C(C)(O)[C@H](C)O (stereo partly drawn) ?
Result string: > 100 µM

Query string: Would you kindly repeat that for `Cc1cc2c(cc1Cl)SC(NNCCO)=NS2(=O)=O` ?
Result string: > 100 µM

Query string: Would you kindly repeat that for `[O-]c1c2c(nn1-c1ccc(F)cc1)c1ccccc1c[n+]2Cc1ccccc1` ?
Result string: 41.9 µM

Query string: Would you kindly repeat that for `O=C(c1ccccc1)c1ccc(N2C(=O)/C(=C/c3ccccc3S)N=C2c2ccccc2)c(N2C(=O)/C(=C/c3ccccc3S)N=C2c2ccccc2)c1` ?
Result string: > 100 µM

Query string: Would you kindly repeat that for `CSC1=CC(=O)c2ccccc2C1=O` ?
Result string: 8.98 µM

Query string: Would you kindly repeat that for `CCOC(=O)C#Cc1cccc(C#CC(=O)OCC)c1` ?
Result string: 3.25 µM

Query string: Would you kindly repeat that for N#CC1=C(N)N=C(N2CCOCC2)C(C#N)C12Nc1ccccc1S2 (stereo not drawn) ?
Result string: > 100 µM

Query string: Would you kindly repeat that for `N#CCCC(C#N)(C#N)CCC#N` ?
Result string: > 100 µM

Query string: Would you kindly repeat that for c1ccc2c(c1)CCN1CCc3ccccc3C1C2 (stereo not drawn) ?
Result string: > 100 µM

Query string: Would you kindly repeat that for C=C(C(=O)c1ccccc1)C(NC(C)(C)C)c1ccccc1 (stereo not drawn) ?
Result string: 8.41 µM

Query string: Would you kindly repeat that for `Cc1ccc2ncnc(N(C)C3CCCCC3)c2c1` ?
Result string: 44.9 µM

Query string: Would you kindly repeat that for NC1=NC(c2ccc(Cl)cc2)=CC(c2cccc(Cl)c2)S1 (stereo not drawn) ?
Result string: 72.5 µM

Query string: Would you kindly repeat that for `O=[N+]([O-])C(C(Cl)=C(Cl)Cl)=C(N1CCCCC1)N1CCCCC1` ?
Result string: > 100 µM

Query string: Would you kindly repeat that for `CCOC(=O)N1c2ccccc2N(C(=O)OCC)C1CC(=O)/C=C/c1ccccc1` ?
Result string: 5.75 µM

Query string: Would you kindly repeat that for `COc1cc2c(cc1NC(=O)c1ccccc1)c1c(n2S(=O)(=O)c2ccccc2)CCN(S(=O)(=O)c2ccccc2)C1` ?
Result string: > 100 µM

Query string: Would you kindly repeat that for `COc1ccc(-c2nc3sccn3c2-c2ccnc(NCCNS(=O)(=O)c3ccc(C(F)(F)F)cc3)n2)cc1` ?
Result string: > 100 µM

Query string: Would you kindly repeat that for OC1CC(O)O[C@H](c2ccccc2)C1 (stereo partly drawn) ?
Result string: > 100 µM

Query string: Would you kindly repeat that for O=C1CC(n2ccnc2)c2c(Cl)sc(Cl)c21 (stereo not drawn) ?
Result string: > 19.8 µM

Query string: Would you kindly repeat that for `O=S(=O)(O)c1c(Cl)c(Cl)c(O)c2ncccc12` ?
Result string: 27.6 µM

Query string: Would you kindly repeat that for `Nc1[nH]c(=O)nc2c1cnn2COCCO` ?
Result string: > 100 µM

Query string: Would you kindly repeat that for `CCOC(=O)c1c2ccccc2n2c(=O)n(-c3ccc(OC)cc3)nnc12` ?
Result string: > 100 µM

Query string: Would you kindly repeat that for `CCN1CCN(Cc2ccc(Nc3ncc(F)c(-c4cc(F)c5nc(C)n(C(C)C)c5c4)n3)nc2)CC1` ?
Result string: 6.92 µM

Query string: Would you kindly repeat that for CN1C(=O)C(N=Nc2ccc([N+](=O)[O-])cc2)SC1=S (stereo not drawn) ?
Result string: > 100 µM

Query string: Would you kindly repeat that for `Cc1cn(CC(=S)NCCc2c[nH]c3ccccc23)c(=O)[nH]c1=O` ?
Result string: > 100 µM

Query string: Would you kindly repeat that for `c1ccc(-c2cc3nc4ccccc4nc3cc(-c3ccccc3)[nH][nH]2)cc1` ?
Result string: > 100 µM

Query string: Would you kindly repeat that for `NNC(=O)/C(NC(=O)c1ccccc1)=C(\N)c1cccc([N+](=O)[O-])c1` ?
Result string: > 100 µM

Query string: Would you kindly repeat that for `COc1ccc(OC(=O)N2C/C(=C\c3ccccc3)C(=O)/C(=C/c3ccccc3)C2)cc1` ?
Result string: 2.64 µM

Query string: Would you kindly repeat that for `COc1cc(-c2nc(N)c(C#N)c3c2CCS(=O)(=O)c2ccc(C)cc2-3)cc(OC)c1OC` ?
Result string: > 100 µM
